Molecular target: T1, human IL-12 (human, UniProt P29460 23-328; P29459 23-219)
T1 construct: Recombinant (Peprotech); FLAG-tagged IL-12 in the flow cytometry assays, biotinylated in the IL-12Rβ2 assay; also called hIL-12
T1 sequence 1: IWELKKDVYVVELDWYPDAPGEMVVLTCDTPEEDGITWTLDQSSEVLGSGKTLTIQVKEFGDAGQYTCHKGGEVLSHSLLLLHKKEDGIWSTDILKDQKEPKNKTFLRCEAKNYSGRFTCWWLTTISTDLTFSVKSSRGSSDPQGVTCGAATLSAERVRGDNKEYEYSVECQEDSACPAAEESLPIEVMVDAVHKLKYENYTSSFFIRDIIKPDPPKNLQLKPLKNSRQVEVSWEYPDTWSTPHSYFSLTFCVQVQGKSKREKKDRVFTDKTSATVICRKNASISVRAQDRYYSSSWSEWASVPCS
T1 sequence 2: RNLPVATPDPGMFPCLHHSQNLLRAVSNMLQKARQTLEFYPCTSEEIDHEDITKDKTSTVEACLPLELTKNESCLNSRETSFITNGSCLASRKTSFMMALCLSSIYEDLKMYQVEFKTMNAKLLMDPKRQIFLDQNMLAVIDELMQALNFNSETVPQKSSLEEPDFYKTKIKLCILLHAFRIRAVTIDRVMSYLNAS
Assay: ELISA, coated IL-12
OBSERVED_PROPERTY: binding result

BINDER	OBSERVED_RESULT
Antibody 133 (antibody, human IgG1, kappa, V domains shown) VH: EVQLVQSGAEVKKPGATVKISCKASGYTFSDYYLHWVRQAPEKGLEWMGWIDPENGDTEYAPKFQGRVTITADTSTDTGYLELSSLRSEDTAVYYCAANKELRYFDVWGQGTLVTVSS VL: DIQMTQSPSSVSASVGDRVTITCRASQSISINLHWYQQKPGEAPKLLIYFASQSISGVPSRFSGSGSGTDFSLTINSLQPEDFATYYCQQSNSFPLTFGGGTKVEIKR	binds
Antibody 148 (antibody, human IgG1, kappa, V domains shown) VH: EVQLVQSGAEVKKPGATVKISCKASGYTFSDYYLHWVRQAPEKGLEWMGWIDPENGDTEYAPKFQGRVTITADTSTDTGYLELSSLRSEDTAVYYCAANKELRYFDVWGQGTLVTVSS VL: DIQMTQSPSSVSASVGDRVTITCRASQSISINLHWYQQKPGKAPKLLIYFASQSISGVPSRFSGSGSGTDFSLTINSLQPEDFARYFCQQSNSFPLTFGGGTKVEIKR	binds
Antibody 142 (antibody, human IgG1, kappa, V domains shown) VH: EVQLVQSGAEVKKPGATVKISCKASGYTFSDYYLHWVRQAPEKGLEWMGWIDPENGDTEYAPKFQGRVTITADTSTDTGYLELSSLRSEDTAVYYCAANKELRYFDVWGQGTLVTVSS VL: DIQMTQSPSSVSASVGDRVTITCRASQSISINLHWYQQKSGKAPKLLIYFASQSISGVPSRFSGSGSGTDFSLTINSLQPEDFARYYCQQSNSFPLTFGGGTKVEIKR	binds
Antibody 137 (antibody, human IgG1, kappa, V domains shown) VH: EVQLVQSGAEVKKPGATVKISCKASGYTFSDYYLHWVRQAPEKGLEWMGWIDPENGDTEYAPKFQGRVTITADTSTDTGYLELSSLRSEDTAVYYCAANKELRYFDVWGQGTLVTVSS VL: DIQMTQSPSSVSASVGDRVTITCRASQSISINLHWYQQKPGKAPKLLIYFASQSISGVPSRFSGSGSGTDFSLTINSLQPEDFATYFCQQSNSFPLTFGGGTKVEIKR	binds
